run_description: Inhibition of tyramine oxidase
recorded_metric: pIC50
One number for each entry, as −log10 of the molar value.

Q: Param item = NC[C@@]1(c2ccccc2)C[C@@H]1F ; retrieve measured pIC50.
A: 4.92
